Answer each item with its documented pIC50.
- target_entity: Full length SHP2 protein (Recombinant Human SHP-2) (Homo sapiens)
- Sequence (Q06124 2-593 limits assumed): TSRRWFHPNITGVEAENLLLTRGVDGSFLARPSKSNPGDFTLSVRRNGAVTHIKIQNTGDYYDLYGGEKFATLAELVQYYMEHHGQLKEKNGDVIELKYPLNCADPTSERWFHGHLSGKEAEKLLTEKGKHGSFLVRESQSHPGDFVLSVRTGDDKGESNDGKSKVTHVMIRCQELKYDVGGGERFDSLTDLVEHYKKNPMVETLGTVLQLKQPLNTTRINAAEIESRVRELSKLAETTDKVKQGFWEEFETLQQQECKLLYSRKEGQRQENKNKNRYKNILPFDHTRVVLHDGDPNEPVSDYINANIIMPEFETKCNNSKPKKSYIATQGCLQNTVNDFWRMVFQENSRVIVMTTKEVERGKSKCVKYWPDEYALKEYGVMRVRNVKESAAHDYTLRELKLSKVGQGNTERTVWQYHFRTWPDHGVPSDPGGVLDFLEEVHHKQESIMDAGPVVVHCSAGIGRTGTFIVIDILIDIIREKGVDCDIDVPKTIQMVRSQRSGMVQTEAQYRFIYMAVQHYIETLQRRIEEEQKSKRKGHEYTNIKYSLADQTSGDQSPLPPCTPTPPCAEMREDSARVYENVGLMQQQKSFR
- experiment_summary: SHP2 biochemical assay (DiFMUP substrate, activating peptide IRSI_2pY)
- stated_conditions: DiFMUP substrate, activating peptide IRSI_2pY, 60 min at RT; read-out: SHP-2 Biochemical assay IC50
Units for pIC50: none; it is -log10 of a concentration expressed in mol/L.

Documented pIC50 of CC1(N)CCCN(c2nc(N)c(-c3cccc(Cl)c3Cl)c(C(N)=O)n2)CC1 (centres unmarked) : 7.00

pIC50 reading for NC(=O)c1nc(N2C[C@H]3CCCCC[C@@H](C2)C3N)nc(N)c1-c1cccc(Cl)c1Cl (single isomer, unassigned) : 5.06

// pIC50 value for NC(=O)c1nc(N2CCC3(CC2)CC(F)(F)C[C@H]3N)nc(N)c1-c1cccc(Cl)c1Cl : 6.70

So for Cc1nc(N2CCC(C)(N)CC2)nc(C(N)=O)c1-c1cccc(Cl)c1Cl (atropisomer, axis not shown; (P)) [Compound 31] , the logged pIC50 turned out to be 5.10

Value of measured pIC50 for the entry NC(=O)c1nc(N[C@@H]2CCCC[C@@H]2N)nc(N)c1-c1cccc(Cl)c1Cl : 5.43

Briefly, pIC50 measured for Cc1nc(N2CCC(C)(N)CC2)nc(C(N)=O)c1-c1cccc(C(F)(F)F)c1Cl : 6.28

So, CC(C)C1N(c2nc(N)c(-c3cccc(Cl)c3Cl)c(C(N)=O)n2)CC12CC(N)C(O)C2 (centres unmarked) ? Its pIC50 was 5.02

* * *

- target_entity: Full length SHP2 protein (Recombinant Human SHP-2) (Homo sapiens)
- experiment_summary: SHP2 biochemical assay (DiFMUP substrate, activating peptide IRSI_2pY)
- stated_conditions: DiFMUP substrate, activating peptide IRSI_2pY, 60 min at RT; read-out: SHP-2 Biochemical assay IC50
Counter-ions that a name gives are not always drawn.
Can you tell me pIC50 for the items I'm about to list?
Bear in mind: pIC50 is minus log10 of a mol/L concentration; give just that figure.

The compound C[C@@]1(N)CCCN(c2nc(N)c(-c3cccc(Cl)c3Cl)c(C(N)=O)n2)CC1 (atropisomer, axis not shown; (P)) showed pIC50 equal to 7.15

Summary for this compound, NC(=O)c1nc(N2CCC3(CC2)Oc2ccccc2[C@H]3N)nc(N)c1-c1cccc(Cl)c1Cl [Compound 123, di-hydrochloride] : pIC50 is 7.82

Notebook: CC1(N)CCN(c2nc(Cl)c(-c3cccc(Cl)c3Cl)c(C(N)=O)n2)CC1 (atropisomer, axis not shown; (P)) [Compound 79] , pIC50 read as 7.52

Given item Cc1nc(N[C@H]2CC[C@@H](N)CC2)nc(C(N)=O)c1-c1cccc(Cl)c1Cl , the value recorded as its pIC50 is 5.64

* * *

- target_entity: Full length SHP2 protein (Recombinant Human SHP-2) (Homo sapiens)
- experiment_summary: SHP2 biochemical assay (DiFMUP substrate, activating peptide IRSI_2pY)
- stated_conditions: DiFMUP substrate, activating peptide IRSI_2pY, 60 min at RT; read-out: SHP-2 Biochemical assay IC50
Would you kindly list IC50 for each of these compounds?
The reply should be a number in µM, with the unit left off.

// sample NC[C@]12CCCC[C@H]1CN(c1nc(N)c(-c3cccc(Cl)c3Cl)c(C(N)=O)n1)C2 (single isomer, unassigned) [Compound 103] , its IC50 was 5.6

So for NC[C@]12CCCC[C@H]1CN(c1nc(N)c(-c3cccc(Cl)c3Cl)c(C(N)=O)n1)C2 (single isomer, unassigned) [Compound 101] , the logged IC50 turned out to be 0.075

Short answer for Cc1nc(N2CCC(C)(N)CC2)nc(C(N)=O)c1-c1cccc(Cl)c1Cl (atropisomer, axis not shown; (M)) [Compound 30] : IC50 was 0.11

Value of IC50 reported for the compound NC(=O)c1nc(N2CCC3(CC2)Oc2ncccc2[C@@H]3N)nc(N)c1-c1cccc(Cl)c1Cl (single isomer, unassigned) [Compound 131] is 7

Per the records, this compound ( CC1(N)CCN(c2nc(N)c(-c3cccc(Cl)c3Cl)c(C(N)=O)n2)CC1 (single isomer, unassigned) [Compound 27] ) has IC50 equal to 0.082
